run.description: Oral toxicity (mortality), intragastric administration
assay.conditions: mouse, in vivo, 2000 mg/kg, read-out: percentage of mortality
endpoint.label: mortality

Here's what some known entries look like.
molecule	mortality
COc1ccc2c(c1OC)C(=O)OC2Nc1ccccc1CCN1CCN(c2ccccc2)CC1 (stereo not drawn)	0%
O=C1OC(Nc2ccccc2CCN2CCN(c3ccc(F)cc3)CC2)c2ccccc21 (stereo not drawn)	50%
COc1ccc2c(c1OC)C(=O)OC2Nc1ccccc1CCN1CCN(c2ccc(Cl)cc2)CC1 (stereo not drawn)	0%
COc1ccc2c(c1OC)C(=O)OC2Nc1ccccc1CCN1CCN(c2ccc(F)cc2)CC1 (stereo not drawn)	0%
Cc1ccccc1N1CCN(CCc2ccccc2NC2OC(=O)c3ccccc32)CC1 (stereo not drawn)	0%
O=C1OC(Nc2ccccc2CCN2CCN(c3ccccc3)CC2)c2ccccc21 (stereo not drawn)	0%

Query block: Identify measured mortality corresponding to COc1ccccc1N1CCN(CCc2ccccc2NC2OC(=O)c3ccccc32)CC1 (stereo not drawn)
Result block: 10%

Query block: Indicate its recorded mortality; the molecule in question is COc1ccc2c(c1OC)C(=O)OC2Nc1ccccc1CCN1CCN(c2ccccc2C)CC1 (stereo not drawn)
Result block: 0%

Query block: Give reported mortality value for COc1ccc(N2CCN(CCc3ccccc3NC3OC(=O)c4ccccc43)CC2)cc1 (stereo not drawn)
Result block: 20%
